Hi there, I'd appreciate the recorded kcat for every entry that follows.
B1: glmS ribozyme (parent)
chain: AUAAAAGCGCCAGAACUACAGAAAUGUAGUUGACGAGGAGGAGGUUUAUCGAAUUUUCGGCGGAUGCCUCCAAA

Variants of: B1
Assay: kcat; higher = faster cleavage; RNA array
Conditions: with glucosamine-6-phosphate
Variants at the floor of the assay were thinned out.

QUERY: For the variant AUAAAAGCGCCAGAACUACAGAAAUGUAGUUGACGAGGAGGAGGUUUAUCGAAUUUACGUCGGAUGCCUCCAAA [U57A G60U] , give its measured kcat value.
RESULT: < 1e-05 s⁻¹

QUERY: For the variant AUAAAAGCGUCAGAACUACAGAAAUGUAGUUGACGAGGAGGAGGUUGAUCGAAUUUUCGGCGGAUGCCUCCAAA [C10U U47G] , give its measured kcat value.
RESULT: < 1e-05 s⁻¹

QUERY: For the variant AUAAAAGCGCGAGAACUACAGAAAUGUAGUUGACGAGGAGGAGGUUUAUCGAAUUUUCGGCGGAUGCCUCCAAA [C11G] , give its measured kcat value.
RESULT: < 1e-05 s⁻¹

QUERY: For the variant AUAAAAGCGCCAGAACUACAGAAAUGUAGUUGAGGAGUAGGAGGUUUAUCGAAUUUUCGGCGGAUGCCUCCAAA [C34G G38U] , give its measured kcat value.
RESULT: < 1e-05 s⁻¹

QUERY: For the variant AUAAAAGCGCCAGAACUACAGAAAUGUAGCUGACGAGGAGGAGGUUUAUCGAAUUUUCGGCGGAUUCCUCCAAA [U30C G66U] , give its measured kcat value.
RESULT: < 1e-05 s⁻¹

QUERY: For the variant AUAAAAGCGCCAGAACUACAGAAAUGUAGUUGACGAGCAGGAGGUUUAUCGAAUUUUCGGCGGAUGACUCCAAA [G38C C67A] , give its measured kcat value.
RESULT: < 1e-05 s⁻¹

QUERY: For the variant AUAAAAGCGCCAGAACUACAGAAAUGUAGUUGACGAGGAGGAGGUUUAUCUCAUUUUCGGCGGAUGCCUCCAAA [G51U A52C] , give its measured kcat value.
RESULT: < 1e-05 s⁻¹

QUERY: For the variant AUAAAAGCGCCAGAACUACAGAAAUGUAGUUGUCGAGGAGGAGGUUUAUUGAAUUUUCGGCGGAUGCCUCCAAA [A33U C50U] , give its measured kcat value.
RESULT: < 1e-05 s⁻¹

QUERY: For the variant AUAAAAGCGCCAGAACUACAGAAAUGUAGAUGACGGGGAGGAGGUUUAUCGAAUUUUCGGCGGAUGCCUCCAAA [U30A A36G] , give its measured kcat value.
RESULT: < 1e-05 s⁻¹

QUERY: For the variant AUAAAAGCGCCAGAACUACAGAAAUGUAGUUGACGAGGAGGAGGUUUAUCGAAUUUUCGGGGGAUGGCUGCAAA [C61G C67G C70G] , give its measured kcat value.
RESULT: < 1e-05 s⁻¹

QUERY: For the variant AUAAAAGCGCCAGAUCUACAGAAAUGUAGUUGACGAGGAGGAGGUUUACCGAAUUUUCGGCGGAUGCCUCCAAA [A15U U49C] , give its measured kcat value.
RESULT: < 1e-05 s⁻¹

QUERY: For the variant AUAAAAGCGCCAGAACUACAGAAAUGUAGUUGACGAGGACGAGGUUUAUCGAAUUUUCGGCGCAUGCCUCCAAA [G40C G63C] , give its measured kcat value.
RESULT: < 1e-05 s⁻¹

QUERY: For the variant AUAAAAGCGCCAGAACUACAGAAAUGUAGUUGACCAGGAGGAGGUUUAUCGGAUUUUCGGCGGAUGCCUCCAAA [G35C A52G] , give its measured kcat value.
RESULT: < 1e-05 s⁻¹

QUERY: For the variant AUAAAAGCGCAAGAACUACAGAAAUGUAGUUGACGAGGAGGAGGUUUAUCGAAUUUUCGGAGGAUGCCUCCAAA [C11A C61A] , give its measured kcat value.
RESULT: < 1e-05 s⁻¹

QUERY: For the variant AUAAAAGCGCCAGAACUACAGAAAUGUAGUUGACGAGGAGGAGGUUUAUCGAAUUUUCGGAGGAUGCCGCCAAA [C61A U69G] , give its measured kcat value.
RESULT: < 1e-05 s⁻¹

QUERY: For the variant AUAAAAGCGCCACAACUACAGAAAUGUAGUUGAUUAGGAGGAGGUUUAUCGAAUUUUCGGCGGAUGCCUCCAAA [G13C C34U G35U] , give its measured kcat value.
RESULT: < 1e-05 s⁻¹
